- System: porcine PGCs
- protocol.summary: In vitro culture of porcine PGCs on STO feeder cells with apoptosis inhibitors; AP-stained colonies counted
- Format: cell-based
- study.conditions: Table 7 antioxidants: NAC 1.0 mM, BHA 0.1 mM, BPN 1.0 mM, CIM 2.0 mM; normalized to control
- Procedure: Porcine fetuses were collected from hysterectomized uteri of four-way crossbred gilts (DeKalb, Ill.) between day 25 and 30 of pregnancy (estrus=day 0). […] AP activity was determined as described previously (Moore and Piedrahita, 1997). […] Specificity of AP activity was determined by staining in the presence of the AP inhibitor, tetramisole (500 μM; Sigma). […]
Normalized # of Colonies + SE: recorded values

INSERT INTO measurements (compound, attribute_measured, experimental_result) VALUES
  ('CN/C(=N/CCSCc1nc[nH]c1C)NC#N [CIM, cimetidine]', 'Normalized # of Colonies + SE', '1.95 ± 0.05'),
  ('CC(C)(C)[N+]([O-])=Cc1ccccc1 [BPN, N-t-butyl-α-phenylnitrone]', 'Normalized # of Colonies + SE', '1.95 ± 0.17'),
  ('COc1ccc(O)c(C(C)(C)C)c1 [BHA, butylated hydroxyanisole]', 'Normalized # of Colonies + SE', '2.48 ± 0.27');

For this compound ( CC(=O)N[C@@H](CS)C(=O)O [NAC, N-acetylcysteine] ), measured Normalized # of Colonies + SE is 1.93 ± 0.10
